- System: Quadruplex DNA
- protocolDescription: Stabilization of c-myc G4 quadruplex d(TTAGGGTTAGGGTTAGGGTTAGGGTT) DNA (unknown origin) assessed as thermal stability by measuring difference in melting temperature t1/2 by circular dichroism spectroscopy (reference value: 72 +/- 0.5 degC)
- Format: nucleic-acid assay
Values of ΔTm strictly less than 6 °C map to yes (1), and values of at least 6 °C map to no (0).

> print(dat)
                             compoundsmiles  labelclass
1  N=C(N)N/N=C/c1c(-c2ccc(Cl)cc2)nc2n1ccc1nc(-c3ccccc3)c(/C=N/NC(=N)N)n12      no (0)
2  Cc1ccc(-c2nc3ccn4c(/C=N/NC(=N)N)c(-c5ccccc5)nc4n3c2/C=N/NC(=N)N)cc1      no (0)
3  Cc1ccc(-c2nc3n(ccc4nc(-c5ccccc5)c(/C=N/NC5=NCCN5)n43)c2/C=N/NC2=NCCN2)cc1      no (0)
4  N=C(N)N/N=C/c1c(-c2ccccc2)nc2ccn3c(C=O)c(-c4ccccc4)nc3n12     yes (1)
5  C(=N\NC1=NCCN1)/c1c(-c2ccsc2)nc2n1ccc1nc(-c3ccsc3)c(/C=N/NC3=NCCN3)n12     yes (1)
6  Cc1ccc(-c2nc3n(ccc4nc(-c5ccccc5)c(/C=N/NC(=N)N)n43)c2C=O)cc1     yes (1)
7  N=C(N)N/N=C/c1c(-c2ccccc2)nc2n1ccc1nc(-c3ccc(Cl)cc3)c(/C=N/NC(=N)N)n12      no (0)
8  Cc1ccc(-c2nc3n(ccc4nc(-c5ccc(C)cc5)c(/C=N/NC5=NCCN5)n43)c2/C=N/NC2=NCCN2)cc1      no (0)

----------
- Test system: Quadruplex DNA
- protocolDescription: Stabilization of c-myc G4 quadruplex d(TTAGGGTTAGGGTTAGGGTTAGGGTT) DNA (unknown origin) assessed as thermal stability by measuring difference in melting temperature t1/2 by circular dichroism spectroscopy (reference value: 72 +/- 0.5 degC)
- Assay type: nucleic-acid assay
Hi! Just check whether ΔTm is below 6 °C. Below gives true, equal or above gives false.

> print(dat)
                             compoundsmiles  labelclass
1  N=C(N)N/N=C/c1c(-c2ccsc2)nc2ccn3c(C=O)c(-c4ccsc4)nc3n12       false
2  Clc1ccc(-c2nc3n(ccc4nc(-c5ccccc5)c(/C=N/NC5=NCCN5)n43)c2/C=N/NC2=NCCN2)cc1       false
3  Cc1ccc(-c2nc3n(ccc4nc(-c5ccccc5)c(/C=N/NC(=N)N)n43)c2/C=N/NC(=N)N)cc1       false
4  Clc1ccc(-c2nc3n(ccc4nc(-c5ccc(Cl)cc5)c(/C=N/NC5=NCCN5)n43)c2/C=N/NC2=NCCN2)cc1        true
5  Cc1ccc(-c2nc3n(ccc4nc(-c5ccc(C)cc5)c(/C=N/NC(=N)N)n43)c2/C=N/NC(=N)N)cc1       false
6  Cc1ccc(-c2nc3n(ccc4nc(-c5ccc(C)cc5)c(/C=N/NC(=N)N)n43)c2C=O)cc1        true
7  Cc1ccc(-c2nc3ccn4c(/C=N/NC5=NCCN5)c(-c5ccccc5)nc4n3c2/C=N/NC2=NCCN2)cc1       false
8  OCc1c(-c2ccccc2)nc2n1ccc1nc(-c3ccccc3)c(/C=N/NC3=NCCN3)n12        true

----------
- Tested on: Quadruplex DNA
- protocolDescription: Stabilization of c-kit1 G4 quadruplex d(DNA AGGGAGGGCGCTGGGAGGAGGG) DNA (unknown origin) assessed as thermal stability by measuring difference in melting temperature t1/2 by circular dichroism spectroscopy (reference value: 54 +/- 0.5 degC)
- Assay type: nucleic-acid assay
Below, each entry is listed with its recorded ΔTm.
measuredParameter: ΔTm (°C)

> print(dat)
                             compoundsmiles  unitabbrev  testvalue
1  Cc1ccc(-c2nc3ccn4c(/C=N/NC5=NCCN5)c(-c5ccccc5)nc4n3c2/C=N/NC2=NCCN2)cc1          °C       15.2
2  Cc1ccc(-c2nc3n(ccc4nc(-c5ccccc5)c(/C=N/NC5=NCCN5)n43)c2/C=N/NC2=NCCN2)cc1          °C       21.4
3  N=C(N)N/N=C/c1c(-c2ccc(Cl)cc2)nc2n1ccc1nc(-c3ccc(Cl)cc3)c(/C=N/NC(=N)N)n12          °C       11.1
4  Cc1ccc(-c2nc3n(ccc4nc(-c5ccccc5)c(/C=N/NC(=N)N)n43)c2C=O)cc1          °C        6.6
5  N=C(N)N/N=C/c1c(-c2ccsc2)nc2ccn3c(C=O)c(-c4ccsc4)nc3n12          °C       16.1
6  OCc1c(-c2ccccc2)nc2n1ccc1nc(-c3ccccc3)c(/C=N/NC3=NCCN3)n12          °C        7.1
7  N=C(N)N/N=C/c1c(-c2ccccc2)nc2ccn3c(C=O)c(-c4ccccc4)nc3n12          °C       11.2
8  Cc1ccc(-c2nc3n(ccc4nc(-c5ccc(C)cc5)c(/C=N/NC5=NCCN5)n43)c2/C=N/NC2=NCCN2)cc1          °C       17.1

----------
- Tested on: Quadruplex DNA
- protocolDescription: Stabilization of c-myc G4 quadruplex d(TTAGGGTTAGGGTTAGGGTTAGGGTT) DNA (unknown origin) assessed as thermal stability by measuring difference in melting temperature t1/2 by circular dichroism spectroscopy (reference value: 72 +/- 0.5 degC)
- Format: nucleic-acid assay
measuredParameter: ΔTm (°C)

> print(dat)
                             compoundsmiles  measuredparameter  testvalue
1  Clc1ccc(-c2nc3ccn4c(/C=N/NC5=NCCN5)c(-c5ccccc5)nc4n3c2/C=N/NC2=NCCN2)cc1                ΔTm        7.4
2  N=C(N)N/N=C/c1c(-c2ccc(Cl)cc2)nc2n1ccc1nc(-c3ccc(Cl)cc3)c(/C=N/NC(=N)N)n12                ΔTm       11.4
3  N=C(N)N/N=C/c1c(-c2ccccc2)nc2ccn3c(CO)c(-c4ccccc4)nc3n12                ΔTm        2.8
4  Cc1ccc(-c2nc3n(ccc4nc(-c5ccc(C)cc5)c(/C=N/NC5=NCCN5)n43)c2C=O)cc1                ΔTm        1.5

----------
- Test system: Quadruplex DNA
- protocolDescription: Stabilization of c-kit2 G4 quadruplex d(CGGGCGGGCGCTAGGGAGGGT) DNA (unknown origin) assessed as thermal stability by measuring difference in melting temperature t1/2 by circular dichroism spectroscopy (reference value: 61.5 +/- 0.5 degC)
- Assay type: nucleic-acid assay
// returns label 0 unless ΔTm is strictly below 20 °C, in which case label 1

> print(dat)
                              compoundsmiles        testedon  labelclass
 1  OCc1c(-c2ccccc2)nc2n1ccc1nc(-c3ccccc3)c(/C=N/NC3=NCCN3)n12  Quadruplex DNA     label 1
 2  N=C(N)N/N=C/c1c(-c2ccccc2)nc2ccn3c(C=O)c(-c4ccccc4)nc3n12  Quadruplex DNA     label 0
 3  N=C(N)N/N=C/c1c(-c2ccccc2)nc2ccn3c(CO)c(-c4ccccc4)nc3n12  Quadruplex DNA     label 1
 4  N=C(N)N/N=C/c1c(-c2ccc(Cl)cc2)nc2n1ccc1nc(-c3ccccc3)c(/C=N/NC(=N)N)n12  Quadruplex DNA     label 0
 5  N=C(N)N/N=C/c1c(-c2ccccc2)nc2n1ccc1nc(-c3ccc(Cl)cc3)c(/C=N/NC(=N)N)n12  Quadruplex DNA     label 0
 6  Cc1ccc(-c2nc3n(ccc4nc(-c5ccccc5)c(/C=N/NC(=N)N)n43)c2C=O)cc1  Quadruplex DNA     label 0
 7  Clc1ccc(-c2nc3n(ccc4nc(-c5ccccc5)c(/C=N/NC5=NCCN5)n43)c2/C=N/NC2=NCCN2)cc1  Quadruplex DNA     label 1
 8  N=C(N)N/N=C/c1c(-c2ccc(Cl)cc2)nc2n1ccc1nc(-c3ccc(Cl)cc3)c(/C=N/NC(=N)N)n12  Quadruplex DNA     label 0
 9  N=C(N)N/N=C/c1c(-c2ccsc2)nc2ccn3c(C=O)c(-c4ccsc4)nc3n12  Quadruplex DNA     label 0
10  Cc1ccc(-c2nc3n(ccc4nc(-c5ccc(C)cc5)c(/C=N/NC5=NCCN5)n43)c2/C=N/NC2=NCCN2)cc1  Quadruplex DNA     label 0
11  Cc1ccc(-c2nc3ccn4c(/C=N/NC(=N)N)c(-c5ccccc5)nc4n3c2/C=N/NC(=N)N)cc1  Quadruplex DNA     label 0
12  Cc1ccc(-c2nc3ccn4c(/C=N/NC5=NCCN5)c(-c5ccccc5)nc4n3c2/C=N/NC2=NCCN2)cc1  Quadruplex DNA     label 0
13  C(=N\NC1=NCCN1)/c1c(-c2ccsc2)nc2n1ccc1nc(-c3ccsc3)c(/C=N/NC3=NCCN3)n12  Quadruplex DNA     label 1
14  Cc1ccc(-c2nc3n(ccc4nc(-c5ccc(C)cc5)c(/C=N/NC(=N)N)n43)c2/C=N/NC(=N)N)cc1  Quadruplex DNA     label 0
15  Cc1ccc(-c2nc3n(ccc4nc(-c5ccccc5)c(/C=N/NC5=NCCN5)n43)c2/C=N/NC2=NCCN2)cc1  Quadruplex DNA     label 0
16  Cc1ccc(-c2nc3n(ccc4nc(-c5ccc(C)cc5)c(/C=N/NC(=N)N)n43)c2C=O)cc1  Quadruplex DNA     label 1
17  Clc1ccc(-c2nc3ccn4c(/C=N/NC5=NCCN5)c(-c5ccccc5)nc4n3c2/C=N/NC2=NCCN2)cc1  Quadruplex DNA     label 0
18  Cc1ccc(-c2nc3n(ccc4nc(-c5ccc(C)cc5)c(/C=N/NC5=NCCN5)n43)c2C=O)cc1  Quadruplex DNA     label 1
19  Clc1ccc(-c2nc3n(ccc4nc(-c5ccc(Cl)cc5)c(/C=N/NC5=NCCN5)n43)c2/C=N/NC2=NCCN2)cc1  Quadruplex DNA     label 1
20  Cc1ccc(-c2nc3n(ccc4nc(-c5ccccc5)c(/C=N/NC(=N)N)n43)c2/C=N/NC(=N)N)cc1  Quadruplex DNA     label 0
